- Test system: SW 1271 complex spheroids, viability
- experimental_details: Anticancer human tumor SW 1271 cell line growth inhibition [LSD1];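 also: spheroids exposed to agents for 7 days before luminescence read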;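 as to viability, T/C: 100% = DMSO vehicle control viability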
- setup_conditions: second compound 10 µM; first compound 0.3 µM; stronger effect = lower value
reported_metric: viability, T/C (%)
Use % as the unit, but write only the number.

The examples below pair each entry with its known result.
* Nc1ccn(C2OC(CO)C(O)C2(F)F)c(=O)n1 (centres undefined) + NC1CCC(NC2CC2c2ccccc2)CC1 | 64.9
* Nc1ncn(C2CC(O)C(CO)S2)c(=O)n1 (centres undefined) + NC1CCC(NC2CC2c2ccccc2)CC1 | 63.6
* Nc1ccccc1NC(=O)c1ccc(CNC(=O)OCc2cccnc2)cc1 + NC1CCC(NC2CC2c2ccccc2)CC1 | 29.2

Let's switch to this compound now.
Form field - read-out: viability, T/C; system: SW 1271 complex spheroids, viability; submitted item: COc1cc(C2c3cc4c(cc3C(OC3OC5COC(C)OC5C(O)C3O)C3COC(=O)C23)OCO4)cc(OC)c1O (centres undefined) + NC1CC1c1ccc(-c2cccc(O)c2)cc1
51.5

###

- System: SW 1271 complex spheroids, viability
- experimental_details: Anticancer human tumor SW 1271 cell line growth inhibition [LSD1];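 also: spheroids exposed to agents for 7 days before luminescence read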
- setup_conditions: curve of first compound; second compound 10 µM
criterion met if IC50 is below 70 nM. criterion not met if not; exact matches included in criterion not met.

As a guide, the following entries are already answered.
• NS(=O)(=O)OCC1CC(n2ccc3c(NC4CCc5ccccc54)ncnc32)CC1O (centres undefined) + NC1CC1c1ccc(-c2cccc(O)c2)cc1 = criterion not met
• CC1COCCN1c1cc(-c2ccnn2C)c2ccnc(-c3ccn[nH]3)c2n1 (centres undefined) + NC1CCC(NC2CC2c2ccccc2)CC1 = criterion met
• CC(C)CC(NC(=O)C(Cc1ccccc1)NC(=O)c1cnccn1)B(O)O (centres undefined) + NC1CCC(NC2CC2c2ccccc2)CC1 = criterion met
• CC[C@@]1(O)C(=O)OCc2c1cc1n(c2=O)Cc2cc3c(CN(C)C)c(O)ccc3nc2-1 + NC1CC1c1ccc(-c2cccc(O)c2)cc1 = criterion met
• O=C(C=Cn1cnc(-c2cc(C(F)(F)F)cc(C(F)(F)F)c2)n1)NNc1cnccn1 + NC1CC1c1ccc(-c2cccc(O)c2)cc1 = criterion not met

Regarding Nc1ccn(C2OC(CO)C(O)C2(F)F)c(=O)n1 (centres undefined) + NC1CC1c1ccc(-c2cccc(O)c2)cc1 , kindly confirm whether its IC50 is beneath 70 nM.
criterion not met

Regarding CC(C)c1c(-c2ccccc2)nc2c(C#N)c[nH]n2c1=O + NC1CC1c1ccc(-c2cccc(O)c2)cc1 , kindly confirm whether its IC50 is beneath 70 nM.
criterion not met

Regarding NS(=O)(=O)OCC1CC(n2ccc3c(NC4CCc5ccccc54)ncnc32)CC1O (centres undefined) + NC1CCC(NC2CC2c2ccccc2)CC1 , kindly confirm whether its IC50 is beneath 70 nM.
criterion not met

Regarding CCN(c1cc(-c2ccc(CN3CCOCC3)cc2)cc(C(=O)NCc2c(C)cc(C)[nH]c2=O)c1C)C1CCOCC1 + NC1CCC(NC2CC2c2ccccc2)CC1 , kindly confirm whether its IC50 is beneath 70 nM.
criterion not met

Regarding O=C(c1cc(Cc2n[nH]c(=O)c3ccccc23)ccc1F)N1CCN(C(=O)C2CC2)CC1 + NC1CCC(NC2CC2c2ccccc2)CC1 , kindly confirm whether its IC50 is beneath 70 nM.
criterion not met

Regarding CC1COCCN1c1cc(-c2ccnn2C)c2ccnc(-c3ccn[nH]3)c2n1 (centres undefined) + NC1CC1c1ccc(-c2cccc(O)c2)cc1 , kindly confirm whether its IC50 is beneath 70 nM.
criterion met

Regarding O=C(C=Cc1cccc(S(=O)(=O)Nc2ccccc2)c1)NO + NC1CCC(NC2CC2c2ccccc2)CC1 , kindly confirm whether its IC50 is beneath 70 nM.
criterion not met

Regarding CC1(C)CCC(CN2CCN(c3ccc(C(=O)NS(=O)(=O)c4ccc(NCC5CCOCC5)c([N+](=O)[O-])c4)c(Oc4cnc5[nH]ccc5c4)c3)CC2)=C(c2ccc(Cl)cc2)C1 + NC1CCC(NC2CC2c2ccccc2)CC1 , kindly confirm whether its IC50 is beneath 70 nM.
criterion not met
